# Species: Rattus norvegicus
# experimental_details: Open TG-GATES - Regimen: Single
# Assay type: toxicity, organism-based, Sprague-Dawley
# Design: regimen Single, gender Male, age 6 weeks
# conditions: in vivo, po, 0 mg/kg, 9 h, tissue Plasma, route gavage, dose level Control
Field: class. Source value: TBIL. Ranges: low bin: < 0.05 mg/dL; mid bin: ≥ 0.05 mg/dL and < 0.1 mg/dL; high bin: ≥ 0.1 mg/dL

Bin this entry: CC1=C(/C=C/C(C)=C/C=C/C(C)=C/CO)C(C)(C)CCC1
low bin

# repeat for CCOC(=O)CCC(=O)O[C@H]1[C@H](O[C@@H]2[C@@H](C)[C@H](O[C@H]3C[C@@](C)(OC)[C@@H](O)[C@H](C)O3)[C@@H](C)C(=O)O[C@H](CC)[C@@](C)(O)[C@H](O)[C@@H](C)C(=O)[C@H](C)C[C@@]2(C)O)O[C@H](C)C[C@@H]1N(C)C [ERYTHROMYCIN ETHYLSUCCINATE]
low bin

One more compound: O=C(CCCN1CCC(O)(c2ccc(Cl)cc2)CC1)c1ccc(F)cc1
high bin

Then CN(C)CCN(Cc1cccs1)c1ccccn1 ?
low bin

Same for COc1cc2c(c(OC)c1OC)-c1ccc(OC)c(=O)cc1[C@@H](NC(C)=O)CC2
high bin

Thanks! And C[C@@H]1C[C@H]2[C@@H]3CCC4=CC(=O)C=C[C@]4(C)[C@@]3(F)[C@@H](O)C[C@]2(C)[C@@]1(O)C(=O)CO ?
low bin

Now the compound CCCNC(=O)NS(=O)(=O)c1ccc(Cl)cc1 [CHLORPROPAMIDE]
mid bin

Please answer likewise for CN(C)CCCN1c2ccccc2CCc2ccccc21
mid bin

Same question for Cc1ccc(C)c(OCCCC(C)(C)C(=O)O)c1 please.
low bin

# repeat for CCOc1ccc(NC(=O)CC(C)O)cc1 (stereo not drawn)
mid bin

Similarly, CC(C)OC(=O)C(C)(C)Oc1ccc(C(=O)c2ccc(Cl)cc2)cc1 [FENOFIBRATE] ?
mid bin

Can you handle CN(C)CCCN1c2ccccc2CCc2ccc(Cl)cc21 next?
mid bin

CN1C(=O)CN=C(c2ccccc2)c2cc(Cl)ccc21 ?
high bin

Where do the numbers come from? From ChEMBL document CHEMBL3885861.
